Cited source for all entries: paper PMC4701444

Target: T1, PfAMA1 (DI-DII of Plasmodium falciparum Apical Membrane Antigen 1, 3D7, residues 104-438) (Plasmodium falciparum, UniProt Q7KQK5 104-438)
T1 construct: codon-optimized synthetic gene; also called native PfAMA1; PfAMA1 DI-DII construct
T1 sequence: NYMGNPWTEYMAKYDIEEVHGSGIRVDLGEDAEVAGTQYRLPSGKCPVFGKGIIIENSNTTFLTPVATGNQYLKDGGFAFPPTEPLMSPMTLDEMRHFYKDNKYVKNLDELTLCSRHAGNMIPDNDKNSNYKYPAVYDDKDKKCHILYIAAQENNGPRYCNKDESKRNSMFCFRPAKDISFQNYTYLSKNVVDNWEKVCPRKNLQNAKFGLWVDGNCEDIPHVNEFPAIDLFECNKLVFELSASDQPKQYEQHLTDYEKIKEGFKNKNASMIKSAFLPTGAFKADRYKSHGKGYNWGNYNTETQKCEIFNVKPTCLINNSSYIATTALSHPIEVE
Assay: fluorescence polarisation; anisotropy kinetics at 30°C; association: 10 nM labeled probe with 50, 100, 200 nM protein; dissociation: 10 nM preformed complex challenged with 2500 or 5000 nM unlabeled PfRON2sp1; global fit to a one-intermediate model; PBS pH 7.4, at least 0.1% BSA
Settings: both partners purified
Bridge positions count the residues as written; N and C are the ends. Ends that are not written are not given here. * marks the point of attachment. 5FAM = O=C1OC2(c3ccc(O)cc3Oc3cc(O)ccc32)c2ccc(C(=O)*)cc21

>  <binder>
5FAM-DITQQAKDIGAGPVASCFTTRMSPPQQICLNSVVNTALS (disulfide 17-29, Rhoptry Neck Protein 2 (RON2) of Plasmodium falciparum, residues 2021-2059; also called labeled peptide; labeled probe; source: synthetic peptide, bought: Kinexus (purity ≥ 95%)) [F*PfRON2sp1 (39 aa) [2021-2059], fluorescein-labeled PfRON2sp1 peptide]

>  <Kd / µM>
0.0438

$$$$
